assay: binders from COS7 lysate, DM2A8 probe, primary screen, torsin A project, cell lysate, small-molecule microarray, fluorescence 635/667 (AID 1065); conditions: higher = more signal, COS7 lysate expressing mutant human TOR1A
The reader will find reported composite z-score values listed item by item below.
Lab note: write the figure by itself, no unit.

See these solved cases before continuing.
{"compound": "O=C(O)[C@H](Cc1ccccc1)n1cc(C2(O)CCCCC2)nn1", "composite z-score": 0.444}
{"compound": "COc1ccc(C(O)C2C=CC3C(=O)NC(=O)C3N2Nc2ccc(Cl)cc2Cl)c2ccccc12 (stereo not given)", "composite z-score": 0.433}
{"compound": "CN1C(=O)C2C(C1=O)C1C=C(CCCO)C2C(C2CC2)N1Cc1cccc(OC(F)(F)F)c1 (stereo not given)", "composite z-score": -0.122}
{"compound": "COc1ccc(C(O)C2C=CC3C(=O)N(c4ccccc4)C(=O)C3N2Nc2ccc([N+](=O)[O-])cc2)c2ccccc12 (stereo not given)", "composite z-score": 0.263}

API: the following record is the query input.
What composite z-score value was documented for this compound, CC(C)=CCCC(C)=CC(O)C1C=CC2C(=O)NC(=O)C2N1Nc1ccccn1 (stereo not given) ?
1.6

---

tested on: XIP peptide (Xip251-270) binding; test: XIP fragment 251-270 binding compounds – biochemical, small-molecule microarray, fluorescence 635/667 nm, 0.1 µg/mL protein, primary screen (AID 1182); details: fluorescent protein binding, 635 nm, higher = more signal, called active from +8 up or from −8 down
If the reported composite z-score equals or exceeds 0.7, assign criterion met. If not, assign criterion not met.

Use these answered entries as a reference point.
{"compound": "O=C1C[C@@](C(=O)NC2CC2)(c2ccc([N+](=O)[O-])cc2)[C@@H](c2ccc(CO)cc2)N1C1CCCCC1", "target.system": "XIP peptide (Xip251-270) binding", "classification": "criterion met"}
{"compound": "O=C1[C@H]2C=C(I)[C@H](C[C@@H]2c2ccccc2)[C@@]12CO2", "target.system": "XIP peptide (Xip251-270) binding", "classification": "criterion not met"}
{"compound": "C=C(COC)C(=O)CC[C@H](OC(=O)c1cccnc1)c1ccc(OCCO)cc1", "target.system": "XIP peptide (Xip251-270) binding", "classification": "criterion met"}
{"compound": "COc1ccc([Si](C)(C)[C@H]2[C@H](CC(=O)N3Cc4ccccc4C[C@H]3CO)O[C@@]3(C(=O)N(C)c4c(Br)cc(C)cc43)[C@@H]2C)cc1", "target.system": "XIP peptide (Xip251-270) binding", "classification": "criterion not met"}
{"compound": "COCCCNC(=O)[C@@]1(Sc2ccc(C)cc2)CC(=O)N(Cc2ccccc2C(F)(F)F)[C@@H]1c1ccc(CO)cc1I", "target.system": "XIP peptide (Xip251-270) binding", "classification": "criterion met"}
{"compound": "CCCNC(=O)[C@@]1(Sc2ccc(C)cc2)CC(=O)N(Cc2ccccc2Cl)[C@@H]1c1ccc(CO)cc1I", "target.system": "XIP peptide (Xip251-270) binding", "classification": "criterion not met"}

Please tell me: is the compound `COc1ccc(CCNC(=O)[C@@H]2c3ccccc3C(=O)N(Cc3ccccc3OC)[C@H]2c2ccc(CO)cc2)cc1` at or over 0.7 in terms of composite z-score?
criterion not met

Could you tell me if the measured composite z-score of COC(=O)C1(Cc2ccccc2)C=C2C(=C(C)C(=O)C2C)CN1 (stereo not drawn) reaches 0.7 or more?
criterion not met
